Recorded pIC50 values for a group of molecules are listed next.
system: MCF7; assay: Cytotoxicity against human MCF7 cells by resazurin reduction assay; type: functional, cell-based; conditions: Homo sapiens, MCF7; read-out: IC50
Give only the number. pIC50 is defined as minus log10 of concentration in molar units.

Worked cases, answers included:
1. COc1cccc2c1C(=O)c1c(O)c3c(c(O)c1C2=O)C[C@@](O)(C(=O)CO)C[C@@H]3O[C@H]1C[C@H](N)[C@H](O)[C@H](C)O1 ... 4.77
2. CC1(C)C=Cc2c(ccc3[nH]c4cc(O)c(C=O)cc4c23)O1 ... 4.18
3. COc1cc2[nH]c3ccccc3c2cc1C=O ... 3.95
4. COc1ccc2c(c1)[nH]c1c(CC=C(C)C)c(O)c(C=O)cc12 ... 4.27
5. CC(C)=CCc1c(O)c(C=O)cc2c1[nH]c1ccccc12 ... 3.77

Incoming: Suppose we examine the molecule COC(=O)c1cc2c([nH]c3ccccc32)c(O)c1-c1c(O)c(C=O)cc2c1[nH]c1cc(OC)ccc12 ; what pIC50 value has been reported?
Outgoing: 4.21

Incoming: Repeat with COc1cc2[nH]c3ccccc3c2cc1O
Outgoing: 4.50

Incoming: Repeat with COC(=O)c1cc2c(cc1O)[nH]c1ccccc12
Outgoing: 3.69

Incoming: Repeat with Cc1cc2c([nH]c3ccccc32)c2c1OC(C)(C)C=C2
Outgoing: 4.54

Incoming: Repeat with COC(=O)c1ccc2[nH]c3ccccc3c2c1
Outgoing: 3.77

Incoming: Repeat with COc1ccc2c(c1)[nH]c1cc(O)c(C=O)cc12
Outgoing: 4.16
